Measured inhibition at 10 µM by item
System: OVCAR-4
experiment: NCI SRB growth inhibition (single dose 10 µM / five-dose)
Type: cell-based, human
assay_conditions: Homo sapiens; OVCAR-4 (Ovarian cancer), 10 µM; read-out: GI%
reported_property: inhibition at 10 µM (%)

In [3]: df
Out[3]:
                           smiles_structure    reported_property  relational_operator  meas_value
0  O=C(NN=Cc1cccc(O)c1)c1ccc2[nH]c(-c3ccccc3)nc2c1  inhibition at 10 µM                    =        12.4
1  COc1cccc(C=NNC(=O)c2ccc3[nH]c(-c4ccccc4)nc3c2)c1O  inhibition at 10 µM                    >         100
2  COc1ccc(-c2nc3cc(C(=O)NN=Cc4cccc(O)c4)ccc3[nH]2)cc1  inhibition at 10 µM                    =        27.1

* * *

Recorded inhibition at 10 µM values for a group of molecules are listed next.
Tested on: OVCAR-4
experiment: NCI SRB growth inhibition (single dose 10 µM / five-dose)
Assay type: cell-based, human
assay_conditions: Homo sapiens; OVCAR-4 (Ovarian cancer), 10 µM; read-out: GI%
reported_property: inhibition at 10 µM

>>> df
                           smiles_structure    reported_property  meas_value
0  COc1ccc(-c2nc3cc(C(=O)NN=Cc4cccc(OC)c4)ccc3[nH]2)cc1  inhibition at 10 µM      > 100%
1  COc1ccc(C=NNC(=O)c2ccc3[nH]c(-c4ccccc4)nc3c2)cc1O  inhibition at 10 µM        < 5%
2  COc1cc(C=NNC(=O)c2ccc3[nH]c(-c4ccc(Cl)cc4)nc3c2)cc(OC)c1OC  inhibition at 10 µM      > 100%
3  COc1ccc(-c2nc3cc(C(=O)NN=Cc4ccccc4O)ccc3[nH]2)cc1  inhibition at 10 µM      > 100%
4  O=C(NN=Cc1ccccc1O)c1ccc2[nH]c(-c3ccc(Cl)cc3)nc2c1  inhibition at 10 µM      > 100%
5  COc1cccc(C=NNC(=O)c2ccc3[nH]c(-c4ccc(Cl)cc4)nc3c2)c1  inhibition at 10 µM      > 100%
6  COc1ccc(-c2nc3cc(C(=O)NN=Cc4cc(OC)c(OC)c(OC)c4)ccc3[nH]2)cc1  inhibition at 10 µM        < 5%

* * *

Test system: U251
experiment: NCI SRB growth inhibition (single dose 10 µM / five-dose)
Type: cell-based, human
assay_conditions: Homo sapiens, U-251; U251 (CNS cancer), 10 µM; read-out: GI%
Below is a list of entries, each paired with its recorded inhibition at 10 µM value.
reported_property: inhibition at 10 µM

                           smiles_structure  experimental_system    reported_property  meas_value
0  COc1ccc(-c2nc3cc(C(=O)NN=Cc4cccc(OC)c4)ccc3[nH]2)cc1                 U251  inhibition at 10 µM      > 100%
1  COc1ccc(-c2nc3cc(C(=O)NN=Cc4ccccc4O)ccc3[nH]2)cc1                 U251  inhibition at 10 µM      > 100%
2  COc1cc(C=NNC(=O)c2ccc3[nH]c(-c4ccc(Cl)cc4)nc3c2)cc(OC)c1OC                 U251  inhibition at 10 µM      > 100%
